experimental_target: mouse HER2 (23-653) (Mus musculus)
run_description: TR-FRET competition assay for peptide potency, mouse HER2
Format: binding
Set-up: mouse HER2 (23-653) using a Cy5 labeled peptide as a probe; made in house; host or cells: mammalian cells
conditions_used: TR-FRET competition with Cy5 labeled peptide probe, 0.1 nM mouse HER2, 24 h incubation; read-out: moHER2 TR-FRET IC50
Method: Both proteins containing a His-, Avi-tag and biotin in Nterminus, were expressed in mammalian cells and produced in house. […] Standard assay conditions consist of 20 uL total volume in white 384-well plates (Greiner), in 10 mM HEPES buffer containing 150 mM NaCl, 3 mM EDTA, 0.05% Tween20 and 1% final DMSO. […] The ratiometric FRET assay readout is calculated from the ratio of the raw data of the two distinct fluorescence signals measured in time resolved mode (fluorescence 665 nm/fluorescence 620 nm). […]
pIC50: −log10 of the molar value.
quantity_name: pIC50

1) CC(=O)N[C@H]1CCCC(=O)NC[C@@H](C(=O)N(C)[C@@H](Cc2ccc(F)cc2)C(=O)N[C@@H](CCCCNC(=O)CN2CCN(CC(=O)O)CCN(CC(=O)O)CCN(CC(=O)O)CC2)C(N)=O)N(C)C(=O)[C@H](C2CC2)NC(=O)[C@H](Cc2c[nH]c3ccccc23)NC(=O)[C@H](Cc2c[nH]c3ccc(O)cc23)NC(=O)[C@H](CCCCNC(=O)CO)N(C)C(=O)[C@H](CCc2ccccc2)N(C)C(=O)[C@H](CO)NC(=O)[C@H](Cc2ccc(O)cc2)NC1=O [Example C20] :: 9.52

====

experimental_target: mouse HER2 (23-653) (Mus musculus)
run_description: TR-FRET competition assay for peptide potency, mouse HER2
Type: binding
Set-up: mouse HER2 (23-653) using a Cy5 labeled peptide as a probe; made in house; host or cells: mammalian cells
conditions_used: TR-FRET competition with Cy5 labeled peptide probe, 0.1 nM mouse HER2, 24 h incubation; read-out: moHER2 TR-FRET IC50
Positions of bridges follow the written chain, without caps; N, C: chain ends. Non-standard residues stand in square brackets, D forms with d. Residues, ends and D or L forms follow the SMILES beside them. Trp(5-OH) = N[C@@H](Cc1c[nH]c2ccc(O)cc12)C(=O)O; NMePhe(4-F) = CN[C@@H](Cc1ccc(F)cc1)C(=O)O; NMehPhe = CN[C@@H](CCc1ccccc1)C(=O)O; Gly(cPr) = N[C@H](C(=O)O)C1CC1; NMeDab = CN[C@@H](CCN)C(=O)O; NMeDap = CN[C@@H](CN)C(=O)O; NMeS = CN[C@@H](CO)C(=O)O
quantity_name: IC50

1. CC(=O)NCCCC[C@H]1C(=O)N[C@@H](Cc2c[nH]c3ccc(O)cc23)C(=O)N[C@@H](Cc2c[nH]c3ccccc23)C(=O)N[C@@H](C2CC2)C(=O)N(C)[C@H](C(=O)N(C)[C@@H](Cc2ccc(F)cc2)C(=O)N[C@@H](CCCCNC(=O)CN2CCN(CC(=O)O)CCN(CC(=O)O)CCN(CC(=O)O)CC2)C(N)=O)CNC(=O)CCC[C@H](NC(=O)CCC(=O)O)C(=O)N[C@@H](Cc2ccc(O)cc2)C(=O)N[C@@H](CO)C(=O)N(C)[C@@H](CCc2ccccc2)C(=O)N1C :: 0.1 nM
2. CC(=O)NCCCC[C@H]1C(=O)N[C@@H](Cc2c[nH]c3ccc(O)cc23)C(=O)N[C@@H](Cc2c[nH]c3ccccc23)C(=O)N[C@@H](C2CC2)C(=O)N(C)[C@H](C(=O)N(C)[C@@H](Cc2ccc(F)cc2)C(=O)N[C@@H](CCCCNC(=O)CN2CCN(CC(=O)O)CCN(CC(=O)O)CCN(CC(=O)O)CC2)C(N)=O)CNC(=O)CCC[C@H](NC(=O)CC(=O)O)C(=O)N[C@@H](Cc2ccc(O)cc2)C(=O)N[C@@H](CO)C(=O)N(C)[C@@H](CCc2ccccc2)C(=O)N1C :: < 0.1 nM
3. CC(=O)N[C@H]1CC(=O)NCC[C@@H](C(=O)N(C)[C@@H](Cc2ccc(F)cc2)C(N)=O)N(C)C(=O)[C@H](C2CC2)NC(=O)[C@H](Cc2c[nH]c3ccccc23)NC(=O)[C@H](Cc2c[nH]c3ccc(O)cc23)NC(=O)[C@H](CO)N(C)C(=O)[C@H](CCc2ccccc2)N(C)C(=O)[C@H](CO)NC(=O)[C@H](Cc2ccc(O)cc2)NC1=O [Example A9] (Ac-DYS[NMehPhe][NMeS][Trp(5-OH)]W[Gly(cPr)][NMeDab][NMePhe(4-F)]-NH2; lactam 1-9) :: 172 nM
4. CC(=O)N[C@H]1CC(=O)NC[C@@H](C(=O)N(C)[C@@H](Cc2ccc(F)cc2)C(N)=O)N(C)C(=O)[C@H](C2CC2)NC(=O)[C@H](Cc2c[nH]c3ccccc23)NC(=O)[C@H](Cc2c[nH]c3ccc(O)cc23)NC(=O)[C@H](CO)N(C)C(=O)[C@H](CCc2ccccc2)N(C)C(=O)[C@H](CO)NC(=O)[C@H](Cc2ccc(O)cc2)NC1=O [Example A28] (Ac-DYS[NMehPhe][NMeS][Trp(5-OH)]W[Gly(cPr)][NMeDap][NMePhe(4-F)]-NH2; lactam 1-9) :: 413 nM

====

experimental_target: human HER2 (23-652) (Homo sapiens)
run_description: TR-FRET competition assay for peptide potency, human HER2
Type: binding
Parameters: towards human HER2 (23-652) and mouse HER2 (23-653); made in house; host or cells: mammalian cells
conditions_used: read-out: huHER2 TR-FRET IC50
Procedure: Both proteins containing a His-, Avi-tag and biotin in Nterminus, were expressed in mammalian cells and produced in house. […] Standard assay conditions consist of 20 uL total volume in white 384-well plates (Greiner), in 10 mM HEPES buffer containing 150 mM NaCl, 3 mM EDTA, 0.05% Tween20 and 1% final DMSO. […] The ratiometric FRET assay readout is calculated from the ratio of the raw data of the two distinct fluorescence signals measured in time resolved mode (fluorescence 665 nm/fluorescence 620 nm). […]
Where a name gives a salt, the structure may show the parent alone. Starred links: 1 amine or outer side, 2 acyl side, 3 side chain; linkers in the order of their positions; H or OH if unused. Positions of bridges follow the written chain, without caps; N, C: chain ends. Non-standard residues stand in square brackets, D forms with d. Residues, ends and D or L forms follow the SMILES beside them. Trp(5-OH) = N[C@@H](Cc1c[nH]c2ccc(O)cc12)C(=O)O; NMePhe(4-F) = CN[C@@H](Cc1ccc(F)cc1)C(=O)O; isoSer(2S) = O=C([C@@H](O)CN[*:1])[*:2]; NMehPhe = CN[C@@H](CCc1ccccc1)C(=O)O; NMeE = CN[C@@H](CCC(=O)O)C(=O)O; Aad = N[C@@H](CCCC(=O)O)C(=O)O; Gly(cPr) = N[C@H](C(=O)O)C1CC1; NMeK = CN[C@@H](CCCCN)C(=O)O; NMeDap = CN[C@@H](CN)C(=O)O
quantity_name: IC50

1) CC(=O)NCCCC[C@H]1C(=O)N[C@@H](Cc2c[nH]c3ccc(O)cc23)C(=O)N[C@@H](Cc2c[nH]c3ccccc23)C(=O)N[C@@H](C2CC2)C(=O)N(C)[C@H](C(=O)N(C)[C@@H](Cc2ccc(F)cc2)C(N)=O)CCC(=O)NC[C@H](O)C(=O)N[C@@H](Cc2ccc(O)cc2)C(=O)N[C@@H](CO)C(=O)N(C)[C@@H](CCc2ccccc2)C(=O)N1C [Example A23] ([isoSer(2S)]YS[NMehPhe][NMeK](Ac)[Trp(5-OH)]W[Gly(cPr)][NMeE][NMePhe(4-F)]-NH2; lactam N-9) :: 3 nM
2) CC(=O)NCCCC[C@H]1C(=O)N[C@@H](Cc2c[nH]c3ccc(O)cc23)C(=O)N[C@@H](Cc2c[nH]c3ccccc23)C(=O)N[C@@H](C2CC2)C(=O)N(C)[C@H](C(=O)N(C)[C@@H](Cc2ccc(F)cc2)C(=O)N[C@@H](CCCCNC(=O)CCC(C(=O)O)N2CCN(CC(=O)O)CCN(CC(=O)O)CC2)C(N)=O)CNC(=O)CCC[C@H](NC(C)=O)C(=O)N[C@@H](Cc2ccc(O)cc2)C(=O)N[C@@H](CO)C(=O)N(C)[C@@H](CCc2ccccc2)C(=O)N1C (stereo partly shown) :: < 0.1 nM
3) COCCOCCOCCOCCOCCOCCOCCOCCOCCOCCOCCOCCC(=O)N[C@H]1CCCC(=O)NC[C@@H](C(=O)N(C)[C@@H](Cc2ccc(F)cc2)C(=O)N[C@@H](CCCCNC(=O)CN2CCN(CC(=O)O)CCN(CC(=O)O)CC2)C(N)=O)N(C)C(=O)[C@H](C2CC2)NC(=O)[C@H](Cc2c[nH]c3ccccc23)NC(=O)[C@H](Cc2c[nH]c3ccc(O)cc23)NC(=O)[C@H](CCCCNC(C)=O)N(C)C(=O)[C@H](CCc2ccccc2)N(C)C(=O)[C@H](CO)NC(=O)[C@H](Cc2ccc(O)cc2)NC1=O :: < 0.1 nM
4) CC(=O)NCCCC[C@H]1C(=O)N[C@@H](Cc2c[nH]c3ccc(O)cc23)C(=O)N[C@@H](C)C(=O)N[C@@H](C2CC2)C(=O)N(C)[C@H](C(=O)N(C)[C@@H](Cc2ccc(F)cc2)C(=O)N[C@@H](CCCCN)C(N)=O)CNC(=O)CCC[C@H](NC(C)=O)C(=O)N[C@@H](Cc2ccc(O)cc2)C(=O)N[C@@H](CO)C(=O)N(C)[C@@H](CCc2ccccc2)C(=O)N1C [Example A45, TFA salt] (Ac-[Aad]YS[NMehPhe][NMeK](Ac)[Trp(5-OH)]A[Gly(cPr)][NMeDap][NMePhe(4-F)]K-NH2; lactam 1-9) :: > 900 nM
